target-desc: PDE7B (Homo sapiens, UniProt Q9NP56)
Sequence (Q9NP56 whole entry): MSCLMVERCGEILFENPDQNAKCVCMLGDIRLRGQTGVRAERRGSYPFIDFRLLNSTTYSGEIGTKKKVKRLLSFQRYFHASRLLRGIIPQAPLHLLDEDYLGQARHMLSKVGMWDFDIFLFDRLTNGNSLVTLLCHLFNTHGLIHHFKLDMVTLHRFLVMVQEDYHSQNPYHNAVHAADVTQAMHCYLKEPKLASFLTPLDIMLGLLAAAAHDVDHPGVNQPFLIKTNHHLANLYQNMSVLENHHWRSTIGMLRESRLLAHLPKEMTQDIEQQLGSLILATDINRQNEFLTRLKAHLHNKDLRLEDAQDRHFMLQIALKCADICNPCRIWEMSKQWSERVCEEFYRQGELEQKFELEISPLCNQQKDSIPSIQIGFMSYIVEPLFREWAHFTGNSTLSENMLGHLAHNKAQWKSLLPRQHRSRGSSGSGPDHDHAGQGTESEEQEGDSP
run-description: PDE7 enzymatic assay, IC50 determination (PDE7B)
experimental-parameters: human recombinant enzyme, 0.1 μM FAM-cAMP, 30 min 25° C.
measure-name: IC50 (µM)
Answers are plain numbers, in µM.

Report IC50 for each item below.
1. CNC(=O)c1ccc(NC(=O)c2cc3c(C)nn(C4CCCCC4)c3s2)cn1 [Formula No. 6B]
2. COc1ccc(Cn2c(=O)c3cc(OC(CF)CF)c(F)cc3n(C3CCN(C=O)CC3)c2=O)cc1OC [Formula No. 55E]
3. O=C1Nc2c(Cl)ccc(Oc3ccccc3-c3nnn[nH]3)c2C2(CCCCC2)N1 [Formula No. 35A]
4. O=C1Nc2c(Cl)ccc(O[C@H]3C[C@H](C(=O)O)C3)c2C2(CCCCC2)N1 [Formula No. 44A]

1. 0.053
2. 0.083
3. 0.0009
4. 0.072
